Attribution: BindingDB's records for doi:10.7270/Q2TX3CTT

Consider the following compounds; for each one, report its pEC50.
Molecular target: Glycogen synthase kinase-3 beta (Homo sapiens)
Sequence (P49841 whole entry): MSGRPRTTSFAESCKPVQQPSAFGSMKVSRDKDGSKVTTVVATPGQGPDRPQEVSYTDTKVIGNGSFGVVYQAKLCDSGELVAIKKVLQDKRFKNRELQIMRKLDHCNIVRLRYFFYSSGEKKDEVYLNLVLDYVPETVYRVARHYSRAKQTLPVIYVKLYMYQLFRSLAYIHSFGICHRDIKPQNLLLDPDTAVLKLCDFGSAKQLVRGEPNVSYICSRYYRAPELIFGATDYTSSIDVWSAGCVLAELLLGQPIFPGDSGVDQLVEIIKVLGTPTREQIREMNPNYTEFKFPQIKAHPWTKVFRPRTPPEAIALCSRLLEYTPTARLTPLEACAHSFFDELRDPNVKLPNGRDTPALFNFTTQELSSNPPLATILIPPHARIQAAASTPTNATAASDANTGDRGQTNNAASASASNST
Test: concentration-response blocking of human GSK3B – biochemical, luminescence, cell-free homogeneous, retest, dose response (AID 434954)
pEC50: −log10 of the molar value.

Query string: What value of pEC50 has been reported for the following compound? COc1ccc(/C=C2\Sc3ccc(C(=O)NCCN4CCCCCC4)cc3N(C)C2=O)cc1
Result string: 4.36

Query string: And Nc1nonc1-n1nnc(C(=O)NN=Cc2ccccc2O)c1CN1CCCC1 ?
Result string: 4.61

Query string: And Nc1nc(NCc2ccccc2)nc(Nc2ccc(F)cc2)c1[N+](=O)[O-] ?
Result string: < 3.52

Query string: And Cc1cc(-c2onc3ccc(Cl)cc23)ccc1O ?
Result string: < 3.52

Query string: And CCc1ccc(C(=O)c2cnc3ccc(OC)cc3c2N2CCN(CC)CC2)cc1 ?
Result string: 4.68

Query string: And O=C(N1CCN(c2ccccc2F)CC1)C12CC3CC(CC(C3)C1)C2 [SMR000071700] ?
Result string: < 3.52

Query string: And Cc1cccc(-c2nnc(SCc3ccccc3)o2)c1 [MLS000067803] ?
Result string: < 3.52

Query string: And NC(=O)C1CCN(C(=O)c2ccc(Oc3cc(Cl)cc(Cl)c3)o2)CC1 ?
Result string: < 3.52

Query string: And O=C(COc1ccccc1[N+](=O)[O-])NN=Cc1cccs1 [SMR000185881] ?
Result string: < 3.52

Query string: And CCn1c(/C=C/N(C)c2ccccc2)[n+](CC)c2cc(Cl)ccc21 [SMR000173749] ?
Result string: < 3.52
